Target: UniProt:Q14416
Sequence (Q14416 19-872): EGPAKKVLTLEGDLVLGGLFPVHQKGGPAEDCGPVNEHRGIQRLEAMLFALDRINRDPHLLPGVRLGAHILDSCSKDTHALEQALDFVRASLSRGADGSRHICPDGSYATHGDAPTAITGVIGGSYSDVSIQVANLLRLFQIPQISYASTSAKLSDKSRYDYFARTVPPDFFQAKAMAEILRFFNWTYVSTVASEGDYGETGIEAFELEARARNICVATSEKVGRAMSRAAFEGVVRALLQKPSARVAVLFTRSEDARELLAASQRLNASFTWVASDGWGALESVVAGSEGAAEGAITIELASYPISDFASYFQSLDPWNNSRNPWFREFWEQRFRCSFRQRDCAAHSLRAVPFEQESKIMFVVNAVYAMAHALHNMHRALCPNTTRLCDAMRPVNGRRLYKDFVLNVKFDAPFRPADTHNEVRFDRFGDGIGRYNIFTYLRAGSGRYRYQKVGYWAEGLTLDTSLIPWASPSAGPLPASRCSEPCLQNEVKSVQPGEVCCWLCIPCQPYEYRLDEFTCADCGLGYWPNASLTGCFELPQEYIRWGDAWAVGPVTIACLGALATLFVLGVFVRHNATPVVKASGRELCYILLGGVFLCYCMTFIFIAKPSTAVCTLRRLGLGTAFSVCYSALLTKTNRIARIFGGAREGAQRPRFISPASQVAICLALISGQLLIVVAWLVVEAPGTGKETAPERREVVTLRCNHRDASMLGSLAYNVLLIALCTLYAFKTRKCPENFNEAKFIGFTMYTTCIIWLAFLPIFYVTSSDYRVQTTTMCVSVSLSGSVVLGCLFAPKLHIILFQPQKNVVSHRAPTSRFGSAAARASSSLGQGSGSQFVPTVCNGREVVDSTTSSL
Test: FLIPR intracellular Ca2+ assay, potentiation of glutamate at mGlu2 receptor in HEK293 cell clone
Format: cell-based
Parameters: V5/His (named in the vector only); expressed in transfected cells; host or cells: HEK293
Conditions: potentiation of 1 μM glutamate, HEK293 cells expressing human mGlu2, rGLAST and Galpha16
Where a name gives a salt, the structure may show the parent alone.
PARAMETER_MEASURED: EC50

## Input Quick check: EC50 of CCCCN1Cc2cc(Nc3cncc(N4CCNCC4)c3)ccc2C1=O [Example 5] ?
## Output 2000 to 10000 nM

## Input Next up: CCCCN1Cc2cc(-c3cncc(-c4ccccc4)c3)ccc2C1=O [Example 24]
## Output 500 to 2000 nM

## Input Next up: CCCCN1Cc2cc(Oc3cncc(-c4ccccc4)c3)ccc2C1=O [Example 11]
## Output < 500 nM

## Input Next up: CCCCN1Cc2cc(Nc3cncc(N4CCN(C)CC4)c3)ccc2C1=O [Example 10]
## Output 2000 to 10000 nM

## Input Next up: CCCCN1Cc2cc(Nc3cc(N4CCNCC4)cnc3Cl)ccc2C1=O [Example 6]
## Output 2000 to 10000 nM

## Input Next up: CCCCN1Cc2ccc(Oc3cncc(-c4ccccc4)c3)cc2C1=O [Example 15, trifluoroacetate]
## Output 500 to 2000 nM

## Input Next up: CCCCN1Cc2cc(Nc3cc(N4CCN(C)CC4)cnc3Cl)ccc2C1=O [Example 9]
## Output 500 to 2000 nM

## Input Next up: CCCCN1Cc2cc(Nc3cncc(-c4ccccc4)n3)ccc2C1=O [Example 16]
## Output < 500 nM

## Input Next up: CCCCN1Cc2cc(Nc3cncc(N4CCOCC4)c3)ccc2C1=O [Example 8]
## Output < 500 nM

## Input Next up: CCCCN1Cc2cc(Nc3cnc4ccccc4c3)ccc2C1=O [Example 17]
## Output 500 to 2000 nM

## Input Next up: CCCCN1CCc2c(Oc3cc(N4CCN(C)CC4)cnc3Cl)cccc2C1=O [Example 22]
## Output 500 to 2000 nM

## Input Next up: CCCCN1Cc2cc(Cc3cncc(-c4ccccc4)c3)ccc2C1=O [Example 23]
## Output 500 to 2000 nM

## Input Next up: CCCCN1Cc2cc(Nc3cncc(Cl)c3)ccc2C1=O [Example 7]
## Output 500 to 2000 nM

## Input Next up: CCCCN1Cc2cc(Nc3cncc(-c4ccccc4)c3)cc(Cl)c2C1=O [Example 4]
## Output 500 to 2000 nM

## Input Next up: CCCCN1CCc2cc(Oc3cncc(-c4ccccc4)c3)ccc2C1=O [Example 14, trifluoroacetate]
## Output < 500 nM

## Input Next up: CCCCN1CCc2c(Oc3cncc(-c4ccccc4)c3)cccc2C1=O [Example 13, trifluoroacetate]
## Output < 500 nM

## Input Next up: CCCCN1Cc2cc(Nc3cccnc3Cl)ccc2C1=O [Example 20]
## Output 2000 to 10000 nM

## Input Next up: CCCCN1CCc2c(Oc3cc(N4CCNCC4)cnc3Cl)cccc2C1=O [Example 21]
## Output 500 to 2000 nM

## Input Next up: CCCCN1Cc2cc(Nc3cnc4ccccc4n3)ccc2C1=O [Example 18]
## Output 2000 to 10000 nM

## Input Next up: CCCCN1Cc2c(Oc3cncc(-c4ccccc4)c3)cccc2C1=O [Example 12, trifluoroacetate]
## Output < 500 nM

## Input Next up: COCCN1Cc2cc(Nc3cncc(-c4ccccc4)c3)ccc2C1=O [Example 19]
## Output 500 to 2000 nM

Where these numbers come from: patent US8314120B2
